Target: GCS (Canis lupus familiaris, UniProt A0A8I3MXG6)
Construct: endogenous in cells
Assay: GCS enzymatic assay (MDCK cell lysate, NBD-ceramide to glucosylceramide, LC/MS)
Conditions: Table 2; class symbols A, B, C; the table does not say which of the assays; read-out: Data Range (IC50 values)
Procedure: This assay was modified based on the study by Larsen et al. (J. Lipid Res. 2011, 53, 282). […] Protein concentration was determined using BCA assay kit (Pierce). […] The quantitative analysis of NBD-Ceramide and glucosylceramide was performed on a Shimadzu ultra-fast liquid chromatography (Shimadzu, Japan) coupled with API 4000 triple quadrupole mass spectrometer (Applied Biosystems, Concord, Ontario, Canada). […]
pIC50: −log10 of the molar value.
ATTRIBUTE MEASURED: pIC50

{"COMPOUND": "Cc1ccc(N2CC[C@@H](C(=O)N[C@H](CN3CCCC3)[C@H](O)c3ccc(OC4CC4)c(Cl)c3)C2)cc1 [Compound 153]", "VAL": "7.52 to 9.00"}
{"COMPOUND": "O=C(N[C@H](CN1CCCC1)[C@H](O)c1ccc(OC2CCCC2)c(Cl)c1)[C@@H]1CCN(c2ccc(Cl)cc2)C1 [Compound 141]", "VAL": "7.00 to 7.52"}
{"COMPOUND": "O=C(N[C@H](CN1CCCC1)[C@H](O)c1cc(F)c2c(c1)OCCO2)[C@@H]1CCN(c2ccc3ccccc3n2)C1 [Compound 68]", "VAL": "7.52 to 9.00"}
{"COMPOUND": "O=C(N[C@H](CN1CCCC1)[C@H](O)c1ccc2c(c1)OCCO2)[C@H]1CCN(c2ccc3ccsc3c2)C1 [Compound 53D]", "VAL": "7.52 to 9.00"}

// for each compound below, give its pIC50
1. O=C(N[C@H](CN1CCCC1)[C@H](O)c1ccc2c(c1)OCCO2)C1CCN(c2ccc3c(c2)CCCC3)C1 (stereo partly shown) [Compound 80G]
2. CC(C)(O)COc1ccc([C@@H](O)[C@@H](CN2CCCC2)NC(=O)[C@@H]2CCN(c3ccc(Cl)cc3)C2)cc1Cl [Compound 87]
3. CC(C)(C)c1ccc(N2CC[C@@H](C(=O)N[C@H](CN3CCCC3)[C@H](O)c3cc(F)c4c(c3)OCCO4)C2)cc1 [Compound 142]

Data returned:
["7.52 to 9.00", "7.52 to 9.00", "7.00 to 7.52"]

----------
Kindly state pIC50 for each of the entries shown.
Molecular target: GCS (Canis lupus familiaris)
Construct: endogenous in cells
Sequence (A0A8I3MXG6 1-394): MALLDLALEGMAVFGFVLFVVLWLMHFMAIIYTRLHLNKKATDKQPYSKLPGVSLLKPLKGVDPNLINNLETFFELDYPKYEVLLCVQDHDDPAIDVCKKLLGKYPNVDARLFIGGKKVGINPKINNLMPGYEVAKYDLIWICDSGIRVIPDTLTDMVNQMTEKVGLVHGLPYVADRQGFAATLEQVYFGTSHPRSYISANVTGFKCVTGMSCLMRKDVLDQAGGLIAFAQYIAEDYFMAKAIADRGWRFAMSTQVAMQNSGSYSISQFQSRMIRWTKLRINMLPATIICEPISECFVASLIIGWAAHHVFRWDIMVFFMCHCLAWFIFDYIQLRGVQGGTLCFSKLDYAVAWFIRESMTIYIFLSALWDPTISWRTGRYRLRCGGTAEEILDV
Experiment: GCS enzymatic assay (MDCK cell lysate, NBD-ceramide to glucosylceramide, LC/MS)
Details: Table 2; class symbols A, B, C; the table does not say which of the assays; read-out: Data Range (IC50 values)
pIC50: −log10 of the molar value.

Below, each entry is followed by its recorded pIC50 result.
{"COMPOUND": "O=C(N[C@H](CN1CCCC1)[C@H](O)c1ccc(OC2CC2)c(Cl)c1)C1CCN(c2ccc(Cl)cc2)C1 (stereo in doubt) [Compound 3]", "SUBJECT OF TEST": "GCS (Canis lupus familiaris)", "VAL": "7.52 to 9.00"}
{"COMPOUND": "N#Cc1ccc(N2CC[C@@H](C(=O)N[C@H](CN3CCCC3)[C@H](O)c3ccc(OC4CC4)c(Cl)c3)C2)cc1 [Compound 152]", "SUBJECT OF TEST": "GCS (Canis lupus familiaris)", "VAL": "6.00 to 7.00"}
{"COMPOUND": "O=C(N[C@H](CN1CCC1)[C@H](O)c1ccc(OC2CC2)cc1)[C@H]1CCN(c2ccc3cc(F)ccc3c2)C1 [Compound 159C]", "SUBJECT OF TEST": "GCS (Canis lupus familiaris)", "VAL": "6.00 to 7.00"}

// for each compound below, give its pIC50
1. O=C(N[C@H](CN1CCCC1)[C@H](O)c1ccc(OC2CC2)c(F)c1)[C@@H]1CCN(c2ccccc2)C1 [Compound 151]
2. O=C(N[C@H](CN1CCCC1)[C@H](O)c1cc(F)c2c(c1)OCCO2)[C@@H]1CCN(c2cccc(Oc3ccc(Cl)cc3)n2)C1 [Compound 114]
3. O=C(N[C@H](CN1CCCC1)[C@H](O)c1ccc2c(c1)OCCO2)C1CCN(c2ccc3cc(F)ccc3c2)C1 (stereo in doubt) [Compound 14]
4. O=C(N[C@H](CN1CCCC1)[C@H](O)c1ccc(OC2CC2)c(Cl)c1)[C@@H]1CCN(c2ccc3cc(Cl)ccc3n2)C1 [Compound 100]
5. O=C(N[C@H](CN1CCC1)[C@H](O)c1ccc(OC2CC2)cc1)[C@@H]1CCN(c2ccc3cc(F)ccc3c2)C1 [Compound 159]
6. O=C(N[C@H](CN1CCCC1)[C@H](O)c1ccc2c(c1)OCCO2)C1CCN(c2ccc3cc(Cl)ccc3n2)C1 (some centres unmarked) [Compound 99C]
7. O=C(N[C@H](CN1CCC1)[C@H](O)c1cc(F)c2c(c1)OCCO2)[C@@H]1CCN(c2ccc(Cl)cc2)C1 [Compound 25]

Data returned:
1. 7.52 to 9.00
2. 7.52 to 9.00
3. 7.52 to 9.00
4. 7.52 to 9.00
5. 7.00 to 7.52
6. 7.52 to 9.00
7. 7.52 to 9.00

// for each compound below, give its pIC50
1. O=C(N[C@H](CN1CCCC1)[C@H](O)c1cc(F)c2c(c1)OCCO2)C1CCN(c2ccc(Cl)cc2)C1 (some centres unmarked) [Compound 2A]
2. O=C(N[C@H](CN1CCCC1)[C@H](O)c1cc(F)c2c(c1)OCCO2)[C@@H]1CCN(c2ccc3c(c2)CCCC3)C1 [Compound 93]
3. O=C(N[C@H](CN1CCC1)[C@H](O)c1cc(F)c2c(c1)OCCO2)C1CCN(c2ccc3cc(Cl)ccc3c2)C1 (some centres unmarked) [Compound 89F]
4. Cn1ncc2ccc(N3CC[C@@H](C(=O)N[C@H](CN4CCCC4)[C@H](O)c4ccc(OC5CC5)c(Cl)c4)C3)cc21 [Compound 133]
5. O=C(N[C@H](CN1CCC1)[C@H](O)c1cc(F)c2c(c1)OCCO2)[C@@H]1CCN(c2ccc3cc(F)ccc3c2)C1 [Compound 47]
6. O=C(N[C@H](CN1CCCC1)[C@H](O)c1cc(F)c2c(c1)OCCO2)[C@@H]1CCN(c2ccc3ccsc3c2)C1 [Compound 97]
7. O=C(N[C@H](CN1CCCC1)[C@H](O)c1ccc(OC2CC2)c(Cl)c1)[C@@H]1CCN(c2ccc(F)cc2)C1 [Compound 96]

Data returned:
1: 7.52 to 9.00; 2: 7.52 to 9.00; 3: 7.52 to 9.00; 4: 7.52 to 9.00; 5: 7.52 to 9.00; 6: 7.52 to 9.00; 7: 7.52 to 9.00

----------
Target: GCS (Canis lupus familiaris, UniProt A0A8I3MXG6)
Construct: endogenous in cells
Sequence (A0A8I3MXG6 1-394): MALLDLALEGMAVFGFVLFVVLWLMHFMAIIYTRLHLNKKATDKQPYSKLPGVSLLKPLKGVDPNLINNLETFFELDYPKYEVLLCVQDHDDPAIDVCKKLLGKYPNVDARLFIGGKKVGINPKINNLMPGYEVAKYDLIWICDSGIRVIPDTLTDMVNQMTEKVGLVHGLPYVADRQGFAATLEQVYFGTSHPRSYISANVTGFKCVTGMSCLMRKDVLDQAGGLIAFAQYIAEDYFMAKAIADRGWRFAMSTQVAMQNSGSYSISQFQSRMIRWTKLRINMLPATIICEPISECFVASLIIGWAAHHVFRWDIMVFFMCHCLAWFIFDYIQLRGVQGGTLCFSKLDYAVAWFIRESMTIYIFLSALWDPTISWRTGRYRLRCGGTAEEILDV
Assay: GCS enzymatic assay (MDCK cell lysate, NBD-ceramide to glucosylceramide, LC/MS)
Settings: Table 2; class symbols A, B, C; the table does not say which of the assays; read-out: Data Range (IC50 values)
ATTRIBUTE MEASURED: IC50

{"MOLECULE": "O=C(N[C@H](CN1CCCC1)[C@H](O)c1cc(F)c2c(c1)OCCO2)[C@H]1CCN(c2ccc(F)cc2)C1 [Compound 35A]", "SUBJECT OF TEST": "GCS (Canis lupus familiaris, UniProt A0A8I3MXG6)", "ATTRIBUTE MEASURED": "IC50", "VAL": "0.001 to 0.03 µM"}
{"MOLECULE": "O=C(N[C@H](CN1CCCC1)[C@H](O)c1ccc(OC2CC2)c(Cl)c1)[C@@H]1CCN(c2cccc(Oc3ccc(F)cc3)n2)C1", "SUBJECT OF TEST": "GCS (Canis lupus familiaris, UniProt A0A8I3MXG6)", "ATTRIBUTE MEASURED": "IC50", "VAL": "0.001 to 0.03 µM"}

Now take the following molecule into account.
Entry O=C(N[C@H](CN1CCCC1)[C@H](O)c1cc(F)c2c(c1)OCCO2)[C@]1(O)CCN(c2ccc(Cl)cc2)C1 , IC50 reported as 0.001 to 0.03 µM
